Target: PLA2G7 (Mus musculus)
Construct: Proteomes (mouse brain membrane fraction or cell lysates); from tissue; host or cells: mouse brain membrane fraction (or cell lysates, not specified)
Sequence (Q60963 22-440): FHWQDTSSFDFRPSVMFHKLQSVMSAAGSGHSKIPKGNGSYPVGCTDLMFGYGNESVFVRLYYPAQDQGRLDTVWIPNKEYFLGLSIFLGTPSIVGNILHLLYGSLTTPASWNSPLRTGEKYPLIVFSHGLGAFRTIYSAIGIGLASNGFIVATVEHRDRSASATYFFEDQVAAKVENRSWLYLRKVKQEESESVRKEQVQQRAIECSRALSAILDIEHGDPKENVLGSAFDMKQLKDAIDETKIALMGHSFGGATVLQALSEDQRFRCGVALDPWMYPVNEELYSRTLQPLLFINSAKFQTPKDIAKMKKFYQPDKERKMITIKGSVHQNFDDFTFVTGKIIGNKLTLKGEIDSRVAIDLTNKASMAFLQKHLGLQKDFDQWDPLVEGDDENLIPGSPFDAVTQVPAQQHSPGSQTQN
Experiment: In vitro competitive activity-based protein profiling (gel-based, FP-Rh or HT-01 probe)
Assay type: biochemical
Details: 1 μM inhibitor; read-out: % Inhibition at 1 μM, D = PLA2G7
recorded_endpoint: inhibition at 1 µM

Below, 6 compounds whose answers are already recorded.
smiles_record: COc1cc(-c2ccccc2)ccc1CN1CCN(C(=O)n2cc(C(F)(F)F)cn2)CC1
result: > 75%
//
smiles_record: O=C(c1cnn(C(=O)N2CCN(Cc3ccncc3)CC2)c1)N1CCCC1
result: < 25%
//
smiles_record: CC(C)c1cnn(C(=O)N2CCN(Cc3c(N4CCCC4)cccc3C(F)(F)F)CC2)c1
result: < 25%
//
smiles_record: CN(Cc1cccc(-c2ccncc2)c1)C(=O)n1cc(-c2ccccc2)cn1
result: > 75%
//
smiles_record: O=C(N1CCN(Cc2ccc(C(F)(F)F)cc2N2CCCC2)CC1)n1cc(-c2ccccc2C(F)(F)F)cn1
result: 25 to 75%
//
smiles_record: O=C(N1CCN(Cc2ccc3ccccc3c2)CC1)n1cc(I)cn1
result: > 75%

Look up inhibition at 1 µM for the entries below, preserving their order.
1. CN(Cc1cccc(-c2ccncc2)c1)C(=O)n1cc(C#N)cn1
2. O=C(N1CCN(c2ccccc2Cl)CC1)n1cc(C(F)(F)F)cn1

["25 to 75%", "> 75%"]

###

target: PLA2G7 (Mus musculus, UniProt Q60963); construct: Proteomes (mouse brain membrane fraction or cell lysates); from tissue; host or cells: mouse brain membrane fraction (or cell lysates, not specified); experiment: In vitro competitive activity-based protein profiling (gel-based, FP-Rh or HT-01 probe); type: biochemical; conditions: 1 μM inhibitor; read-out: % Inhibition at 1 μM, D = PLA2G7
recorded_endpoint: inhibition at 1 µM

smiles_record: O=C(c1cnn(C(=O)N2CCN(Cc3nccs3)CC2)c1)N1CCOCC1
experimental_system: PLA2G7 (Mus musculus, UniProt Q60963)
result: < 25%
//
smiles_record: O=C(c1cnn(C(=O)N2CCN(Cc3cccnc3)CC2)c1)N1CCOCC1
experimental_system: PLA2G7 (Mus musculus, UniProt Q60963)
result: < 25%
//
smiles_record: CS(=O)(=O)N1CCN(C(=O)n2cc(Cl)cn2)CC1
experimental_system: PLA2G7 (Mus musculus, UniProt Q60963)
result: > 75%
//
smiles_record: CCN(Cc1ccccc1OC)C(=O)n1cc(Cl)cn1
experimental_system: PLA2G7 (Mus musculus, UniProt Q60963)
result: < 25%
//
smiles_record: O=C(N1CCN(Cc2ccc(-c3ccccc3)cc2Cl)CC1)n1cc(Cl)cn1
experimental_system: PLA2G7 (Mus musculus, UniProt Q60963)
result: < 25%
//
smiles_record: O=C(c1cnn(C(=O)N2CCN(Cc3ccncc3)CC2)c1)N1CCOCC1
experimental_system: PLA2G7 (Mus musculus, UniProt Q60963)
result: < 25%
//
smiles_record: O=C(N1CCCN(Cc2ccccc2)CC1)n1cc(Cl)cn1
experimental_system: PLA2G7 (Mus musculus, UniProt Q60963)
result: < 25%
//
smiles_record: CN1CCN(C(=O)n2cc(Cl)cn2)CC1
experimental_system: PLA2G7 (Mus musculus, UniProt Q60963)
result: < 25%

Look up inhibition at 1 µM for the entries below, preserving their order.
1. Cc1cc(-c2ccccc2)ccc1CN1CCN(C(=O)n2cc(Cl)cn2)CC1
2. O=C(c1ccccc1)N1CCN(C(=O)n2cc(Cl)cn2)CC1
3. O=C(c1cnn(C(=O)N2CCN(Cc3cncnc3)CC2)c1)N1CCCC1
4. CNC(=O)c1cnn(C(=O)N2CCN(Cc3ccc(Cl)cc3)CC2)c1
5. O=C(N1CCN(c2cccc(N3CCOCC3)c2)CC1)n1cc(C(F)(F)F)cn1
6. CCN(Cc1ccccc1C)C(=O)n1cc(Cl)cn1

1. < 25%
2. > 75%
3. < 25%
4. > 75%
5. > 75%
6. < 25%

Look up inhibition at 1 µM for the entries below, preserving their order.
1. CN(CCN(C)S(C)(=O)=O)C(=O)n1cc(C(F)(F)F)cn1
2. CN(CCN(C)C(=O)n1cc(Cl)cn1)C(=O)c1ccccc1
3. Cc1cnn(C(=O)N2CCN(Cc3ccc(-c4ccccc4)cc3)CC2)c1
4. CCN(Cc1ccc(Cl)cc1)C(=O)n1cc(Cl)cn1
5. O=C(N1CCCC1)n1cc(-c2ccc(-c3ccccc3)cc2)cn1

< 25%
< 25%
< 25%
< 25%
< 25%

###

Assignment: determine reported inhibition at 10 µM for the given compounds.
target: MAGL (Mus musculus); construct: Proteomes (mouse brain membrane fraction or cell lysates); from tissue; host or cells: mouse brain membrane fraction (or cell lysates, not specified); test: In vitro competitive activity-based protein profiling (gel-based, FP-Rh or HT-01 probe); type: biochemical; conditions: 10 μM inhibitor
Sequence (O35678 whole entry): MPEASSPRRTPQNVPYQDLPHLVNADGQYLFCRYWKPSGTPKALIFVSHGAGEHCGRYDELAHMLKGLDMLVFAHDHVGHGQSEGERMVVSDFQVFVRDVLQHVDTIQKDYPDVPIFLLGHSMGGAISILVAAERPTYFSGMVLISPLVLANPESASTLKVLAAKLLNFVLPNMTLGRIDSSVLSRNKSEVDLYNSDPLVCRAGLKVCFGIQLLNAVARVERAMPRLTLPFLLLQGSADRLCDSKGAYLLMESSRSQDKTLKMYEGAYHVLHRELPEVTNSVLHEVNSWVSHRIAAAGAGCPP

Look up inhibition at 10 µM for the entries below, preserving their order.
1. O=C(N1CCN(Cc2ccc(C(F)(F)F)cc2N2CCCC2)CC1)n1cc(-c2ccc(C(F)(F)F)cc2)cn1
2. CC(=O)N(C)CCN(C)C(=O)n1cc(C(F)(F)F)cn1
3. N#Cc1cnn(C(=O)N2CCN(Cc3ccc(-c4ccccc4)cc3)CC2)c1
4. O=C(c1cnn(C(=O)N2CCN(Cc3cncnc3)CC2)c1)N1CCOCC1
5. O=C(c1cnn(C(=O)N2CCN(Cc3cccnc3)CC2)c1)N1CCOCC1

1. > 75%
2. < 25%
3. > 75%
4. < 25%
5. 25 to 75%

Look up inhibition at 10 µM for the entries below, preserving their order.
1. O=C(c1cnn(C(=O)N2CCN(Cc3ccccn3)CC2)c1)N1CCOCC1
2. O=C(N1CCN(Cc2ccc3c(c2)OCO3)CC1)n1cc(-c2ccccc2)cn1
3. O=C(N1CCN(C(c2ccc(Cl)cc2)c2ccc(Cl)cc2)CC1)n1cc(-c2ccccc2C(F)(F)F)cn1
4. CCN(Cc1ccc(C)cc1)C(=O)n1cc(Cl)cn1
5. O=C(N1CCCC1)n1cc(Cl)cn1
6. CCN(Cc1cccc(C)c1)C(=O)n1cc(Cl)cn1
7. CC(C)(C)OC(=O)N1CCCN(C(=O)n2cccn2)CC1

< 25%
> 75%
25 to 75%
> 75%
25 to 75%
> 75%
< 25%

Look up inhibition at 10 µM for the entries below, preserving their order.
1. CN1CCN(C(=O)n2cc(C#N)cn2)CC1
2. O=C(N1CCN(c2ccccc2)CC1)n1cc(C(F)(F)F)cn1

["> 75%", "> 75%"]

###

target: ABHD6 (Mus musculus); construct: Proteomes (mouse brain membrane fraction or cell lysates); from tissue; host or cells: mouse brain membrane fraction (or cell lysates, not specified); test: In vitro competitive activity-based protein profiling (gel-based, FP-Rh or HT-01 probe); assay type: biochemical
pIC50: −log10 of the molar value.
recorded_endpoint: pIC50

Sample O=C(N1CCN(Cc2ccccc2)CC1)n1cc(Cl)cn1 — what was its pIC50?
> 7.00

###

target: ABHD6 (Mus musculus, UniProt Q8R2Y0); construct: Proteomes (mouse brain membrane fraction or cell lysates); from tissue; host or cells: mouse brain membrane fraction (or cell lysates, not specified); assay: In vitro competitive activity-based protein profiling (gel-based, FP-Rh or HT-01 probe); assay type: biochemical; conditions: 10 μM inhibitor; read-out: % Inhibition at 10 μM, C = ABHD6
Sequence (Q8R2Y0 whole entry): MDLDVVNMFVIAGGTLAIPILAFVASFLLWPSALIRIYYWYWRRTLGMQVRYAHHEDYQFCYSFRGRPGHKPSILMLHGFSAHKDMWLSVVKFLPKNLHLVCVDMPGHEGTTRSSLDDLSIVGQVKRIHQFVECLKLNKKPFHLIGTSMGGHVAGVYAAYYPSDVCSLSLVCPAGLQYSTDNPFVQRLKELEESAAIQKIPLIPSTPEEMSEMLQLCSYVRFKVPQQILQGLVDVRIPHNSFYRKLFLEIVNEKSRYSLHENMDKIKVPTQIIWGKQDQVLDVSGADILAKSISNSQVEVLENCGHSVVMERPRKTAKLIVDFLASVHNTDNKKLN
recorded_endpoint: inhibition at 10 µM

Below, 10 compounds whose answers are already recorded.
smiles_record: O=C(c1cnn(C(=O)N2CCN(Cc3ccncc3)CC2)c1)N1CCC1
inhibition at 10 µM: > 75%
--
smiles_record: O=C(N1CCN(C(c2ccc(Cl)cc2)c2ccc(Cl)cc2)CC1)n1cc(-c2ccccc2)cn1
inhibition at 10 µM: > 75%
--
smiles_record: COc1cccc(N2CCN(C(=O)n3cc(C(F)(F)F)cn3)CC2)c1
inhibition at 10 µM: > 75%
--
smiles_record: CC(=O)N1CCN(C(=O)n2cc(C#N)cn2)CC1
inhibition at 10 µM: 25 to 75%
--
smiles_record: CN1CCN(C(=O)n2cc(C(F)(F)F)cn2)CC1
inhibition at 10 µM: > 75%
--
smiles_record: O=C(NCCCCc1ccccc1)n1cccn1
inhibition at 10 µM: < 25%
--
smiles_record: Cc1cnn(C(=O)N2CCCN(C(=O)OC(C)(C)C)CC2)c1
inhibition at 10 µM: > 75%
--
smiles_record: O=C(N1CCN(Cc2c(N3CCCC3)cccc2C(F)(F)F)CC1)n1cc(-c2ccccc2)cn1
inhibition at 10 µM: > 75%
--
smiles_record: O=C(N1CCN(Cc2ccc(-c3ccccc3)cc2Cl)CC1)n1cc(C(F)(F)F)cn1
inhibition at 10 µM: > 75%
--
smiles_record: O=C(c1cnn(C(=O)N2CCN(Cc3cncnc3)CC2)c1)N1CCC1
inhibition at 10 µM: > 75%

Look up inhibition at 10 µM for the entries below, preserving their order.
1. CC(=O)N1CCN(C(=O)n2cc(Cl)cn2)CC1
2. O=C(c1ccccc1)N1CCCN(C(=O)n2cc(C(F)(F)F)cn2)CC1
3. N#Cc1cnn(C(=O)N2CCN(Cc3ccccc3)CC2)c1
4. N#Cc1cnn(C(=O)Nc2ccc3ccccc3c2)c1
5. O=C(N1CCN(Cc2cncnc2)CC1)n1cc(-c2ccccc2)cn1
6. O=C(NCCCCCc1ccccc1)n1cccn1

1: < 25%; 2: > 75%; 3: > 75%; 4: < 25%; 5: > 75%; 6: < 25%

Find the measured inhibition at 10 µM: item Cc1cnn(C(=O)NCCCCc2ccccc2)c1 , target or system ABHD6 (Mus musculus, UniProt Q8R2Y0).
< 25%
